- tested.on: P-glycoprotein (Homo sapiens, UniProt P08183)
- Sequence (P08183 whole entry): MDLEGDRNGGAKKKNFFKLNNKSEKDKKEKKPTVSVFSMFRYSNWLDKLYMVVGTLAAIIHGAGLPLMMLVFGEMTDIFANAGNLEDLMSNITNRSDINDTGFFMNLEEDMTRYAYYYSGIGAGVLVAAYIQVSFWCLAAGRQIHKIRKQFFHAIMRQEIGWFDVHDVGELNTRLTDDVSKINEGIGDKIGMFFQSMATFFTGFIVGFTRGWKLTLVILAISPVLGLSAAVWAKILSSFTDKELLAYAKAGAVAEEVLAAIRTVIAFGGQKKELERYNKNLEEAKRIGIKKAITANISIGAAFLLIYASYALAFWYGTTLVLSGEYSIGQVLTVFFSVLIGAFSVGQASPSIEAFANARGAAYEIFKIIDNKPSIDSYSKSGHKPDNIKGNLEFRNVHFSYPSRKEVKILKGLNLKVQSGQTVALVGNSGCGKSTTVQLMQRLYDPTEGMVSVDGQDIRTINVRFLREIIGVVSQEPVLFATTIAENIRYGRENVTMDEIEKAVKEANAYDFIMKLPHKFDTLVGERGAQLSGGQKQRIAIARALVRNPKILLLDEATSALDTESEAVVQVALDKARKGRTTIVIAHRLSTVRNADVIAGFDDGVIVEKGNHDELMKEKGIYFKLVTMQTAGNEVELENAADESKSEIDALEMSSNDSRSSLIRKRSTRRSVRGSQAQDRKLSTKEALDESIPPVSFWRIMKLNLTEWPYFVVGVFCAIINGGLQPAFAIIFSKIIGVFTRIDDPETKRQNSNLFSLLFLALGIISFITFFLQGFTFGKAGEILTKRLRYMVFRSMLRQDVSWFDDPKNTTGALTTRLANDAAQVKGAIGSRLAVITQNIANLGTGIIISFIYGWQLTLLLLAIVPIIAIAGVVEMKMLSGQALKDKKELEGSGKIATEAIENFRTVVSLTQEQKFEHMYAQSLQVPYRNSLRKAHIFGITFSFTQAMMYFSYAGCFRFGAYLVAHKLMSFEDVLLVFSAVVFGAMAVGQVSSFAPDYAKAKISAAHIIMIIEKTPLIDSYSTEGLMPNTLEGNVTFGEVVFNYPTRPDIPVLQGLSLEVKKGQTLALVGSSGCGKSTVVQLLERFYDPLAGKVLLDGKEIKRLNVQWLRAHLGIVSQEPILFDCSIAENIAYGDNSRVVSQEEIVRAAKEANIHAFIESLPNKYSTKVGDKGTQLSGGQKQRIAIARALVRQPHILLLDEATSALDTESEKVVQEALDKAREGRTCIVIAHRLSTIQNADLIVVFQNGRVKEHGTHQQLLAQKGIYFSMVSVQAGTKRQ
- assay.procedure: Rhodamine 123 transport assay across HCT-8 cell monolayers
- condition.info: human, HCT-8 cell monolayers in Transwell dishes, probe Rhodamine 123 (15 μM), % Inhibition of R123 Transport, compound 10 μM; Rh123 15 μM; HCT-8 cells
quantity.kind: inhibition at 10 μM (%)

compound	quantity.kind	quantity.unit	data.value
COc1ccc(C2c3cc(OC)c(OC)cc3C(CC(=O)N3CCN(CC=Cc4ccccc4)CC3)C2C(=O)N2CCN(CC=Cc3ccccc3)CC2)cc1OC (stereo not shown)	inhibition at 10 μM	%	86.7
CCOc1ccccc1N1CCN(C(=O)CC2c3cc(OC)c(OC)cc3C(c3ccc(OC)c(OC)c3)C2C(=O)N(C)C)CC1 (stereo not shown)	inhibition at 10 μM	%	80.4
COCC1C(CCN2CCN(C(=O)OCc3ccccc3)CC2)c2cc(OC)c(OC)cc2C1c1ccc(OC)c(OC)c1 (stereo not shown)	inhibition at 10 μM	%	86.4
COc1ccc(C2c3cc(OC)c(OC)cc3C(CC(=O)N3CCN(c4ccc(C(C)=O)cc4)CC3)C2C(=O)N2CCN(c3ccc(C(C)=O)cc3)CC2)cc1OC (stereo not shown)	inhibition at 10 μM	%	89.7
CCOc1ccccc1N1CCN(C(=O)CC2c3cc(OC)c(OC)cc3C(c3ccc(OC)c(OC)c3)C2C(=O)O)CC1 (stereo not shown)	inhibition at 10 μM	%	55.9

A. CCN1CCN(C(=O)CC2c3cc(OC)c(OC)cc3C(c3ccc(OC)c(OC)c3)C2C(=O)N2CCN(CC)CC2)CC1 (stereo not shown)
B. CCCCOc1ccc(C2c3cc(OCCCC)c(OCCCC)cc3C(CC(=O)N3CCN(c4ccccc4OCC)CC3)C2C(=O)N2CCN(c3ccccc3OCC)CC2)cc1OCCCC (stereo not shown)
C. CCCN(CCC)C(=O)CC1c2cc(OC)c(OC)cc2C(c2ccc(OC)c(OC)c2)C1C(=O)N(CCC)CCC (stereo not shown)
Req: List from greatest to least inhibition at 10 μM. When ranking, write the labels in the order the request describes.
Resp: B, C, A

1. COc1ccc(C2c3cc(OC)c(OC)cc3C(CCN3CCN(c4ccccc4)CC3)C2CN2CCN(c3ccccc3)CC2)cc1OC (stereo not shown)
2. CCN(CC)C(=O)CC1c2cc(OC)c(OC)cc2C(c2ccc(OC)c(OC)c2)C1C(=O)N(CC)CC (stereo not shown)
Req: Between 1 and 2 , which one shows the smaller inhibition at 10 μM number? Lab log: write the label of the selected item as the result.
Resp: 2
(2: 25%, 1: 83.1%)

---

- tested.on: P-glycoprotein (Homo sapiens)
- assay.procedure: Rhodamine 123 transport assay across HCT-8 cell monolayers
- condition.info: compound 10 μM; Rh123 15 μM; HCT-8 cells
quantity.kind: % Inhibition of R123 Transport (%)

molecule	quantity.unit	% Inhibition of R123 Transport
COc1cc(C2c3cc(O)c(OC)cc3C(CC(=O)N3CCC(Cc4ccccc4)CC3)C2C(=O)N2CCC(Cc3ccccc3)CC2)ccc1O (single isomer, unassigned) [AV-251-1]	%	79.26
CCCOc1ccc(C2c3cc(OCCC)c(OC)cc3C(CC(=O)N3CCN(c4ccccc4OCC)CC3)C2C(=O)N2CCN(c3ccccc3OCC)CC2)cc1OC (single isomer, unassigned) [AV-239-1]	%	90.10
COc1ccc(C2c3cc(OC)c(OC)cc3C(CCNC(=O)c3ccc(OC(F)(F)F)cc3)C2CNC(=O)c2ccc(OC(F)(F)F)cc2)cc1OC (centres unmarked) [AV-260]	%	73.84
COc1ccc(C2c3cc(OC)c(OC)cc3C(CCO[Si](c3ccccc3)(c3ccccc3)C(C)(C)C)C2CO)cc1OC (centres unmarked) [AV-175]	%	71.3
COc1ccc(C2c3cc(OC)c(OC)cc3C(CC(=O)N3CCN(C(=O)OCc4ccccc4)CC3)C2C(=O)N2CCN(C(=O)OCc3ccccc3)CC2)cc1OC (centres unmarked) [AV-179]	%	87.7
